test system: RSK3(Kin.Dom.2-C-terminal); construct: gene RPS6KA2; conditions: concentration: 1 μM, replicates: in singlicate; n = 1;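 also: KINOMEscan kinase panel screen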
readoutLabel: %Inh (%)
The response must be a number in % with no trailing unit.

For orientation, consider the following solved cases.
>>> observedvalue("Cn1ccc2ncnc(Oc3ccc(Nc4nc5ccccc5[nH]4)cc3)c21")
0
>>> observedvalue("CN1C(=O)C(Nc2ccc(Cl)c(C(=O)O)c2)=C(c2ccc(Cl)cc2)C1=O [SB-404290]")
1

Proceeding to the next molecule to report its %Inh.
%Inh recorded for this molecule, CN(C)CCN(C)C(=O)c1cc(-c2ccncc2)c(-c2ccc(Cl)c(O)c2)o1.Cl.Cl [SB-710397] , is 0

----------
system: PIKFYVE; details: concentration: 1 μM, replicates: in singlicate; n = 1
Consider the cut-off 4%. If the recorded %Inh is strictly smaller, the label is true; if not, the label is false.

Decide: %Inh of Cc1c(O)cccc1Nc1ccnc2ccc(C(F)(F)F)cc12.Cl strictly below 4%?
false

Decide: %Inh of Cl.c1ccc(-c2n[nH]cc2-c2ccnc(-c3ccc(CN4CCOCC4)cc3)c2)nc1 strictly below 4%?
true

Decide: %Inh of Cc1cccc(-c2nc(Nc3cccc(C(N)=O)c3)c3ccccc3n2)n1 strictly below 4%?
false

Decide: %Inh of COc1ccc(C2=C(Nc3cccc(C(=O)O)c3)C(=O)NC2=O)cc1 strictly below 4%?
true

Decide: %Inh of Cc1cc(-c2ccc3c(c2)CC[C@@H](N[C@@H](C)c2ccccc2)C3)cnc1N.Cl strictly below 4%?
true

Decide: %Inh of COc1cccc(-c2cc(-c3c[nH]nc3-c3ccccn3)ccn2)c1 strictly below 4%?
true

----------
tested on: ROCK1; conditions: concentration: 1 μM, replicates: in singlicate; n = 1
Reported %Inh values for the following compounds.
The response must be a number in % with no trailing unit.

For orientation, consider the following solved cases.
>>> observedvalue("Nc1ncnc2[nH]c(-c3ccccc3)nc12")
11
>>> observedvalue("Cc1cccc(-c2nc(Nc3cccc(C(N)=O)c3)c3ccccc3n2)n1")
1
>>> observedvalue("Cc1c(O)cccc1Nc1ccnc2ccc(C(F)(F)F)cc12.Cl")
10
>>> observedvalue("COc1cc2ncnc(Nc3ccc4nc(-c5ccccc5)[nH]c4c3)c2cc1OC.Cl")
18
>>> observedvalue("Cn1ccc2ncnc(Oc3ccc(NC(=O)Nc4ccccc4)cc3)c21")
0
>>> observedvalue("CCn1c(-c2cccnc2O)nc2cnccc21")
11
>>> observedvalue("O=C(Nc1n[nH]c2nc(-c3nccs3)c(Br)cc12)C1CCCC1")
10
>>> observedvalue("Cc1nnc(-c2ccc3occ(-c4ccc(S(C)=O)cc4)c3c2)[nH]1 (stereo not drawn)")
20

Proceeding to the next compound to report its %Inh.
%Inh recorded for this compound, Cl.O=C(Nc1cccc(-c2nn3ncccc3c2-c2ccnc(Nc3cccnc3)n2)c1)c1c(F)cccc1F , is 0

----------
Reported %Inh values for the following compounds.
system: ZAK; conditions: concentration: 1 μM, replicates: in singlicate; n = 1
The response must be a number in % with no trailing unit.

>>> observedvalue("O=c1cc(N2CCOCC2)nc2n(Cc3cccc(Cl)c3Cl)ccn12")
6
>>> observedvalue("CN1C(=O)C(Nc2ccc(Cl)c(C(=O)O)c2)=C(c2ccc(Cl)cc2)C1=O")
0
>>> observedvalue("Cc1ccc(C(=O)Nc2ccc(Nc3ccnc4cc(-c5ccccn5)ccc34)cc2O)cc1.Cl")
48

%Inh recorded for this compound, Cn1ccc2ncnc(Oc3cccc(C(=O)Nc4ccccc4)c3)c21 , is 0

%Inh recorded for this compound, O=C(O)COc1ncnc2cc(-c3ccc4[nH]ncc4c3)sc12 , is 6

%Inh recorded for this compound, COc1ccccc1-c1ccc2c(NC(=O)C3CC3)n[nH]c2n1 , is 0

%Inh recorded for this compound, COc1ccc(Nc2nccc(-c3cccc(NC(=O)c4cc5cc(F)ccc5[nH]4)c3)n2)cc1 , is 22

%Inh recorded for this compound, Cc1cccc(-c2nc(Nc3ccc4[nH]ncc4c3)c3ccccc3n2)n1 , is 0

%Inh recorded for this compound, Cl.O=C(Nc1cccc(-c2nn3ncccc3c2-c2ccnc(Nc3cccnc3)n2)c1)c1c(F)cccc1F , is 28
